Numbers sourced from ChEMBL document CHEMBL1201862.

Test system: UACC-62
Experiment Description: NCI tumour cell line growth inhibition, 48 h
The source made the active and inactive calls. Cut-off read from the data, not from the text of the source: active = GI50 up to about 1.1 µM and inactive = higher.
Result Type: GI50

# query: GI50 of entry CC(=O)CC[N+](C)(C)C
26.8 µM (inactive)

# query: GI50 of entry CCOP(=O)(OCC)c1c(C(=O)OC)cc(=O)[nH]c1-c1ccc(C)cc1
7.01 µM (inactive)

# query: GI50 of entry COc1cccc(C2c3cc4c(cc3OC(NNC(N)=O)C2C)OCO4)c1OC (stereo unspecified)
22.3 µM (inactive)

# query: GI50 of entry COc1ccc(CCCNC(=O)Cc2cc(OC)c(OC)cc2CO)cc1OC
> 100 µM (inactive)

# query: GI50 of entry COc1cc(OC)c2c(=O)c(O)c(-c3ccc(OC)c(OC)c3)oc2c1
3.43 µM (inactive)

# query: GI50 of entry CCOC(=O)/C=C1\Nc2ccccc2-n2nnnc21
> 100 µM (inactive)

* * *

Test system: NCI-H460
Experiment Description: NCI tumour cell line growth inhibition, 48 h
Calls of active or inactive are those of the source. Cut-off read from the data, not from the text of the source: active = GI50 up to about 1.1 µM and inactive = higher. Positions of bridges follow the written chain, without caps; N, C: chain ends. Non-standard residues stand in square brackets, D forms with d. Residues, ends and D or L forms follow the SMILES beside them. *: point of attachment. Boc = CC(C)(C)OC(=O)*; Aib = CC(C)(N)C(=O)O; OBn = c1ccc(CO*)cc1; Bn = c1ccc(C*)cc1; βAla = NCCC(=O)O
Result Type: GI50

API: value(readout= GI50, system= NCI-H460, query= COc1ccc(/C=C(/C#N)C(N)=O)c(OC)c1 )
> 100 µM (inactive)

API: value(readout= GI50, system= NCI-H460, query= CC(=O)CC[N+](C)(C)C )
65.8 µM (inactive)

API: value(readout= GI50, system= NCI-H460, query= Cc1ccc(S(=O)(=O)NCCCSCCO)cc1 )
43.9 µM (inactive)

API: value(readout= GI50, system= NCI-H460, query= O=S(=O)(CCC[C@H]1[C@@H](CCOCc2ccccc2)C2CCCN1O2)c1ccccc1 (some centres undefined) )
> 100 µM (inactive)

API: value(readout= GI50, system= NCI-H460, query= CC1(C)NC(=O)C(NC(=O)C(N)CC(=O)O)CCCCNC(=O)CCNC1=O (centres undefined) (H-DK[Aib][βAla]; lactam 2-C; configuration not given here) )
> 100 µM (inactive)

API: value(readout= GI50, system= NCI-H460, query= O=C1/C(=C/c2ccc([N+](=O)[O-])cc2)CNC/C1=C\c1ccc([N+](=O)[O-])cc1 )
2.59 µM (inactive)

API: value(readout= GI50, system= NCI-H460, query= CCN(CC)CCC(=O)c1ccccc1 )
30.8 µM (inactive)

API: value(readout= GI50, system= NCI-H460, query= O=C(O)C(Cc1ccccc1)N1C(=O)N/C(=C\c2ccc(F)cc2)C1=O (centres undefined) )
> 100 µM (inactive)

API: value(readout= GI50, system= NCI-H460, query= COc1ccc(CSc2ccccc2Cn2cccc2)cc1OC )
> 100 µM (inactive)

API: value(readout= GI50, system= NCI-H460, query= COc1cc(-c2c3c(cc4c2OCO4)[C@@H](Nc2ccc4c(c2)Cc2cc(N[C@@H]5c6cc7c(cc6C(c6cc(OC)c(O)c(OC)c6)[C@H]6C(=O)OC[C@H]56)OCO7)ccc2-4)[C@H]2COC(=O)[C@@H]2C3)cc(OC)c1O (some centres undefined) )
17.3 µM (inactive)

API: value(readout= GI50, system= NCI-H460, query= O=C(O)Cc1nc[nH]c1C(=O)O )
> 100 µM (inactive)

API: value(readout= GI50, system= NCI-H460, query= c1csc(-c2ccsc2-c2cccs2)c1 )
80.9 µM (inactive)

API: value(readout= GI50, system= NCI-H460, query= COc1cc(OC)c2c(=O)c(O)c(-c3ccc(OC)c(OC)c3)oc2c1 )
3.94 µM (inactive)

API: value(readout= GI50, system= NCI-H460, query= CCC/C=C/C=C/C(=O)OC1C(C)C2(O)C3C=C(C)C(=O)C3CC(COC(C)=O)=CC2C2C(C)(C)C12OC(=O)C(C)C (centres undefined) )
3.08 µM (inactive)

API: value(readout= GI50, system= NCI-H460, query= Cc1cc(C)c2c(c1)CSCc1cc(C)cc(C)c1-2 )
24.2 µM (inactive)

API: value(readout= GI50, system= NCI-H460, query= O=C1CC2CCCCC2=C1O (centres undefined) )
> 100 µM (inactive)

API: value(readout= GI50, system= NCI-H460, query= Sc1nnc(COc2ccc(Cl)cc2Cl)[nH]1 )
> 100 µM (inactive)

API: value(readout= GI50, system= NCI-H460, query= O=C(NCc1ccccc1)c1cc2ccccc2o/c1=N\c1ccccc1F )
41.7 µM (inactive)

API: value(readout= GI50, system= NCI-H460, query= C1CCN2CC34CC(CC5CCCN(C6CCCC3N6)C54)C2C1 (centres undefined) )
> 100 µM (inactive)

API: value(readout= GI50, system= NCI-H460, query= CC1(C)C=C(/C=N/Nc2ccccc2)C(C#N)=C(O)C1(C#N)C#N )
92.7 µM (inactive)

API: value(readout= GI50, system= NCI-H460, query= CCOC(=O)/C(=C\c1ccccc1)C(=O)CCN1CCOCC1 )
14.4 µM (inactive)

API: value(readout= GI50, system= NCI-H460, query= CC(C)CC(NC(=O)C(Cc1ccccc1)NC(=O)C(COCc1ccccc1)NC(=O)OC(C)(C)C)C(=O)OCc1ccccc1 (stereo not drawn) (Boc-Ser(Bn)-Phe-Leu-OBn; configuration not given here) )
11.9 µM (inactive)

API: value(readout= GI50, system= NCI-H460, query= C#CC1(O)CC(c2ccccc2)N(C)C(c2ccccc2)C1 (centres undefined) )
> 100 µM (inactive)

API: value(readout= GI50, system= NCI-H460, query= CCO[C@@H]1OC(=O)[C@@](C)(C(C)=O)[C@@H]1C )
> 100 µM (inactive)
